Cited source: patent US8716436B2

test summary: Solubility
Assay type: physicochemical
setup conditions: saline; read-out: Solubility in saline
From the text: The solubility of the peptides of Formula I (e.g., in saline or physiologic buffer) typically is enhanced relative to the prior art tetrapeptide analogs of the endomorphins Addition of a hydrophilic amino acid and amidated C-terminus to the relatively hydrophobic tetrapeptide sequences Tyr-cyclo[D-Lys-Trp-Phe] (SEQ ID NO:10) and Tyr-cyclo[D-Lys-Phe-Phe] […]
result type: solubility

Lookup result for NC(=O)[C@@H]1CCC(=O)NCCCC[C@@H](NC(=O)[C@@H](N)Cc2ccc(O)cc2)C(=O)N[C@@H](Cc2c[nH]c3ccccc23)C(=O)N[C@@H](Cc2ccccc2)C(=O)N1 [Compound 1, Tyr-c[D-Lys-Trp-Phe-Glu]-NH2] ; measured solubility: ~21 mg/mL

====

Quick reference for Ki among some compounds
test system: human mu opioid receptor (Homo sapiens)
Sequence (P35372 whole entry): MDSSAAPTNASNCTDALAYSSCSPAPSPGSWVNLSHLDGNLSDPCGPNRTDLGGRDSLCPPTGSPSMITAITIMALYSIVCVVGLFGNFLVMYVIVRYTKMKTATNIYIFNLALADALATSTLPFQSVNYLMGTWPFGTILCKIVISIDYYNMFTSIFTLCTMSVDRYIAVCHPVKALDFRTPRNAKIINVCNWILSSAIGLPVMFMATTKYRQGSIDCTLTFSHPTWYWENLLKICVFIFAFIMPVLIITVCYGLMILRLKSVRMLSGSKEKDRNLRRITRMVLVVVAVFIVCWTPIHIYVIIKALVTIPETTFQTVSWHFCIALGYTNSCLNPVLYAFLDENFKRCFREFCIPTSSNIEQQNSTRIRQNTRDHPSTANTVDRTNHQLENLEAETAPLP
Where a SMILES comes first, the peptide text is derived from it.
Your answer is read as nM, so omit the unit and give the number.

Some compounds with known Ki results, for comparison:
>  <compound>
NC(=O)[C@@H]1CCC(=O)NCCCC[C@@H](NC(=O)[C@@H](N)Cc2ccc(O)cc2)C(=O)N[C@@H](Cc2c[nH]c3ccccc23)C(=O)N[C@@H](Cc2ccccc2)C(=O)N1 [Compound 1, Tyr-c[D-Lys-Trp-Phe-Glu]-NH2]

>  <Ki [nM]>
0.49

$$$$
>  <compound>
NC(=O)[C@@H]1CCCCNC(=O)CC[C@@H](NC(=O)[C@@H](N)Cc2ccc(O)cc2)C(=O)N[C@@H](Cc2ccccc2)C(=O)N[C@@H](Cc2ccccc2)C(=O)N1 [Compound 2, Tyr-c[D-Glu-Phe-Phe-Lys]-NH2]

>  <Ki [nM]>
0.73

$$$$

# next compound below
Param item: N[C@@H](Cc1ccc(O)cc1)C(=O)N[C@@H]1CCCCNC(=O)[C@H](Cc2ccccc2)NC(=O)[C@H](Cc2ccccc2)NC1=O [ck2, Tyr-c[D-Lys-Phe-Phe], reference compound] (HELM PEPTIDE1{Y.[dK].F.F}$PEPTIDE1,PEPTIDE1,2:R3-4:R2$$$V2.0; bridges inferred) ; param system: human mu opioid receptor (Homo sapiens); output Ki: 0.36

====

test system: human delta opioid receptor (Homo sapiens, UniProt P41143)
Sequence (P41143 whole entry): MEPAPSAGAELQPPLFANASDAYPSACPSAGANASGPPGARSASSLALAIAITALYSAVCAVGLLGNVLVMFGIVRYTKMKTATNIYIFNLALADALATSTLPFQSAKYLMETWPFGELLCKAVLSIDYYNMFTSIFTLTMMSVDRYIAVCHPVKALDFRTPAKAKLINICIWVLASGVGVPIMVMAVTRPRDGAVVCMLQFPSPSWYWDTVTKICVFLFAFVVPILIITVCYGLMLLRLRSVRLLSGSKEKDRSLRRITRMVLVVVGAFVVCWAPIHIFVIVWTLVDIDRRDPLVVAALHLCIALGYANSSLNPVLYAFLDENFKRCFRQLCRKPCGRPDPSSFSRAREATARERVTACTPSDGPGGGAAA
test summary: biochemical
Where a SMILES comes first, the peptide text is derived from it.
result type: Ki (nM)
Your answer is read as nM, so omit the unit and give the number.

>  <compound>
NC(=O)[C@@H]1CCC(=O)NCCCC[C@@H](NC(=O)[C@@H](N)Cc2ccc(O)cc2)C(=O)N[C@@H](Cc2c[nH]c3ccccc23)C(=O)N[C@@H](Cc2ccccc2)C(=O)N1 [Compound 1, Tyr-c[D-Lys-Trp-Phe-Glu]-NH2]

>  <result>
132

$$$$

Lookup result for NC(=O)[C@@H]1CCCCNC(=O)CC[C@@H](NC(=O)[C@@H](N)Cc2ccc(O)cc2)C(=O)N[C@@H](Cc2ccccc2)C(=O)N[C@@H](Cc2ccccc2)C(=O)N1 [Compound 2, Tyr-c[D-Glu-Phe-Phe-Lys]-NH2] ; measured Ki: 69

Lookup result for N[C@@H](Cc1ccc(O)cc1)C(=O)N[C@@H]1CCCCNC(=O)[C@H](Cc2ccccc2)NC(=O)[C@H](Cc2ccccc2)NC1=O [ck2, Tyr-c[D-Lys-Phe-Phe], reference compound] (HELM PEPTIDE1{Y.[dK].F.F}$PEPTIDE1,PEPTIDE1,2:R3-4:R2$$$V2.0; bridges inferred) ; measured Ki: 3

Lookup result for NC(=O)[C@@H]1CC(=O)NCCCC[C@@H](NC(=O)[C@@H](N)Cc2ccc(O)cc2)C(=O)N[C@@H](Cc2c[nH]c3ccccc23)C(=O)N[C@@H](Cc2ccccc2)C(=O)N1 [Compound 5, Tyr-c[D-Lys-Trp-Phe-Asp]-NH2] ; measured Ki: 140

Lookup result for N[C@@H](Cc1ccc(O)cc1)C(=O)N[C@@H]1CCCCNC(=O)[C@H](Cc2ccccc2)NC(=O)[C@H](Cc2c[nH]c3ccccc23)NC1=O [ck1, Tyr-c[D-Lys-Trp-Phe], reference compound] (HELM PEPTIDE1{Y.[dK].W.F}$PEPTIDE1,PEPTIDE1,2:R3-4:R2$$$V2.0; bridges inferred) ; measured Ki: 28
